Experiment: Cytotoxicity against human MT2 cells
Format: cell-based
Criterion: CC50 strictly less than 8 µM. Met: yes (1). Not met: no (0).

Prompt line: In plain terms, does "C=C(C)[C@@H]1CC[C@]2(C(=O)NCCN)CC[C@]3(C)[C@H](CC[C@@H]4[C@@]5(C)CC=C(c6ccc(C(=O)O)cc6)C(C)(C)[C@@H]5CC[C@]43C)[C@@H]12" come in under 8 µM for CC50?
Response line: yes (1)

Prompt line: In plain terms, does "C=C(C)[C@@H]1CC[C@]2(C(=O)N[C@@H](CN(C)C)C(=O)O)CC[C@]3(C)[C@H](CC[C@@H]4[C@@]5(C)CC=C(c6ccc(C(=O)O)cc6)C(C)(C)[C@@H]5CC[C@]43C)[C@@H]12" come in under 8 µM for CC50?
Response line: no (0)

Prompt line: In plain terms, does "C=C(C)[C@@H]1CC[C@]2(C(=O)NCCC(C)C)CC[C@]3(C)[C@H](CC[C@@H]4[C@@]5(C)CC=C(c6ccc(C(=O)O)cc6)C(C)(C)[C@@H]5CC[C@]43C)[C@@H]12" come in under 8 µM for CC50?
Response line: no (0)

Prompt line: In plain terms, does "C=C(C)[C@@H]1CC[C@]2(C(=O)NCCN(C)C)CC[C@]3(C)[C@H](CC[C@@H]4[C@@]5(C)CC=C(c6ccc(C(=O)O)cc6)C(C)(C)[C@@H]5CC[C@]43C)[C@@H]12" come in under 8 µM for CC50?
Response line: yes (1)

====

Tested on: Human immunodeficiency virus 1
Assay: Antiviral activity against wild type HIV1 NL4-3 infected in human MT2 cells after 4 to 5 days by dual-luciferase reporter gene assay
Assay type: functional, organism-based
Settings: Human immunodeficiency virus 1, NL4-3, MT2
pEC50 reference
When answering, recall that pEC50 equals minus log10 of the concentration in mol/L, and write that number alone.

Reported pEC50 (Human immunodeficiency virus 1) for entry "C=C(C)[C@@H]1CC[C@]2(C(=O)NCCC(=O)O)CC[C@]3(C)[C@H](CC[C@@H]4[C@@]5(C)CC=C(c6ccc(C(=O)O)cc6)C(C)(C)[C@@H]5CC[C@]43C)[C@@H]12" is 7.43

Reported pEC50 (Human immunodeficiency virus 1) for entry "C=C(C)[C@@H]1CC[C@]2(C(=O)N3CCCCC3)CC[C@]3(C)[C@H](CC[C@@H]4[C@@]5(C)CC=C(c6ccc(C(=O)O)cc6)C(C)(C)[C@@H]5CC[C@]43C)[C@@H]12" is 6.43

Reported pEC50 (Human immunodeficiency virus 1) for entry "C=C(C)[C@@H]1CC[C@]2(C(=O)NCCCN(C)C)CC[C@]3(C)[C@H](CC[C@@H]4[C@@]5(C)CC=C(c6ccc(C(=O)O)cc6)C(C)(C)[C@@H]5CC[C@]43C)[C@@H]12" is 8.70

Reported pEC50 (Human immunodeficiency virus 1) for entry "C=C(C)[C@@H]1CC[C@]2(C(=O)NCCC(C)C)CC[C@]3(C)[C@H](CC[C@@H]4[C@@]5(C)CC=C(c6ccc(C(=O)O)cc6)C(C)(C)[C@@H]5CC[C@]43C)[C@@H]12" is 7.33

Reported pEC50 (Human immunodeficiency virus 1) for entry "C=C(C)[C@@H]1CC[C@]2(C(=O)N(C)CCN(C)C)CC[C@]3(C)[C@H](CC[C@@H]4[C@@]5(C)CC=C(c6ccc(C(=O)O)cc6)C(C)(C)[C@@H]5CC[C@]43C)[C@@H]12" is 8.22
